- TARGET_DESC: AT1R (Homo sapiens)
- Sequence (P30556 1-359): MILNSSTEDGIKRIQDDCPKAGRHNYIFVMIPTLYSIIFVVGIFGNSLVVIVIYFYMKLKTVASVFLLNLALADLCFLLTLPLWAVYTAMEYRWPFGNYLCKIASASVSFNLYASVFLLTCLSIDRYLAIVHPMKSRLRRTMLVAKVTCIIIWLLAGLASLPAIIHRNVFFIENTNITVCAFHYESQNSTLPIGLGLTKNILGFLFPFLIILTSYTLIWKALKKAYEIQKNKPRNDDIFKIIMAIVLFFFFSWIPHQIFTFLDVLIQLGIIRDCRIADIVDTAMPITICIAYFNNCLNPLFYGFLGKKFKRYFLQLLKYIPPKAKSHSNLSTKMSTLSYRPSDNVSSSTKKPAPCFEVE
- TEST_DESCRIPTION: β-arrestin2 recruitment BRET (β-arrestin2-RLucII/rGFP-CAAX) in HEK293 cells expressing AT1R
- Type: cell-based
- Parameters: expressed in transfected cells; host or cells: HEK293 cells, transient PEI transfection
- CONDITION_SET: HEK293/AT1R, β-arrestin2 BRET; response of the ligand at 10 μM, normalised to AngII
ASSAY_METRIC: Emax βarr2 (% AngII)

Please review the entries below; each comes with its answer.
Task: Let me know recorded Emax βarr2 (% AngII) for CC[C@H](C)[C@H](NC(=O)[C@H](Cc1ccc(O)cc1)NC(=O)[C@@H](NC(=O)[C@H](CCCNC(=N)N)NC(=O)[C@@H](N)CC(=O)O)C(C)C)C(=O)N[C@@H](Cc1c[nH]cn1)C(=O)N1CCC[C@H]1C(=O)N[C@H](C(=O)O)C(C)(C)C , thanks.
Result: 81

Task: Fill in reported Emax βarr2 (% AngII) for this entry: CC[C@H](C)[C@H](NC(=O)[C@H](Cc1ccc(O)cc1)NC(=O)[C@@H](NC(=O)[C@H](CCCNC(=N)N)NC(=O)[C@@H](N)CC(=O)O)C(C)C)C(=O)N[C@@H](Cc1c[nH]cn1)C(=O)N1CCC[C@H]1C(=O)N[C@@H](Cc1cccc(O)c1)C(=O)O [24b]
Result: 93

Task: Return reported Emax βarr2 (% AngII). Input molecule: CC[C@H](C)[C@H](NC(=O)[C@H](Cc1ccc(O)cc1)NC(=O)[C@@H](NC(=O)[C@H](CCCNC(=N)N)NC(=O)[C@@H](N)CC(=O)O)C(C)C)C(=O)N[C@@H](Cc1c[nH]cn1)C(=O)N1CCC[C@H]1C(=O)N[C@@H](Cc1ccc(OC)cc1)C(=O)O
Result: 105

Task: Read off the recorded Emax βarr2 (% AngII) for CC[C@H](C)[C@H](NC(=O)[C@H](Cc1ccc(O)cc1)NC(=O)[C@@H](NC(=O)[C@H](CCCNC(=N)N)NC(=O)[C@@H](N)CC(=O)O)C(C)C)C(=O)N[C@@H](Cc1c[nH]cn1)C(=O)N1CCC[C@H]1C(=O)N[C@@H](Cc1ccncc1)C(=O)O
Result: 105

Task: Tell me Emax βarr2 (% AngII) reported for CC[C@H](C)[C@H](NC(=O)[C@H](Cc1ccc(O)cc1)NC(=O)[C@@H](NC(=O)[C@H](CCCNC(=N)N)NC(=O)[C@@H](N)CC(=O)O)C(C)C)C(=O)N[C@@H](Cc1c[nH]cn1)C(=O)N1CCC[C@H]1C(=O)N[C@@H](Cc1ccc(-c2ccccc2)cc1)C(=O)O
Result: 98

I: CC[C@H](C)[C@H](NC(=O)[C@H](Cc1ccc(O)cc1)NC(=O)[C@@H](NC(=O)[C@H](CCCNC(=N)N)NC(=O)[C@@H](N)CC(=O)O)C(C)C)C(=O)N[C@@H](Cc1c[nH]cn1)C(=O)N1CCC[C@H]1C(=O)N[C@@H](Cc1ccc2ccccc2c1)C(=O)O
II: CC[C@H](C)[C@H](NC(=O)[C@H](Cc1ccc(O)cc1)NC(=O)[C@@H](NC(=O)[C@H](CCCNC(=N)N)NC(=O)[C@@H](N)CC(=O)O)C(C)C)C(=O)N[C@@H](Cc1c[nH]cn1)C(=O)N1CCC[C@H]1C(=O)N[C@@H](CCCN)C(=O)O
Task: Which shows the larger Emax βarr2 (% AngII) value: I or II ? Kindly give the label for the entry you pick.
Result: I

Taken from paper doi:10.1101/2025.08.13.670122v1.
